Tested on: TFEB
METHOD NOTES: TFEB nuclear translocation assay, HeLa wt cells
Assay type: cell-based
STUDY CONDITIONS: Homo sapiens, HeLa, 2 h, 2 hrs compound treatment, Table 1 does not say HeLa wt or TRPML1 KO
REPORTED PROPERTY: AC50

molecule=COCC1(C)CCN(c2ccccc2NS(=O)(=O)C2=Cc3ccccc3OCC2)CC1 experimental_result="2.01 to 8 µM"
molecule="CN=S(=O)(c1ccc(S(=O)(=O)Nc2cccc(F)c2N2CCC(CN3C[C@@H](C)O[C@@H](C)C3)CC2)cc1)N(C)C (stereo partly drawn)" experimental_result="≤ 2 µM"
molecule=CN(C)S(=O)(=O)c1ccc(S(=O)(=O)Nc2ccccc2N2CCN(C(=O)C3(C)CCC3)CC2)cc1 experimental_result="2.01 to 8 µM"
molecule=CC1(C)CC2(CCN(c3c(F)cccc3NS(=O)(=O)Cc3ccccc3)CC2)CO1 experimental_result="≤ 2 µM"
molecule=CN(C)S(=O)(=O)c1ccc(S(=O)(=O)Nc2ccccc2N2CCN(C(=O)C(C)(C)C)CC2)cc1 experimental_result="2.01 to 8 µM"
molecule=Cc1ccc(S(=O)(=O)Nc2cccc(F)c2N2CCC(CN3C4CCC3COC4)CC2)cc1 experimental_result="≤ 2 µM"
molecule=C[C@@H]1COC[C@H](C)N1CC1CN(c2c(F)cccc2NS(=O)(=O)c2ccc(S(=O)(=O)N(C)C)cc2)C1 experimental_result="≥ 10 µM"
molecule=O=S(=O)(Nc1ccccc1N1CCC(c2ccc(Cl)cc2F)CC1)c1ccc(Cl)cc1 experimental_result="≤ 2 µM"
molecule=Cc1nc(N2CCN(c3ccc(Cl)cc3F)CC2=O)cn1S(=O)(=O)c1ccc(S(=O)(=O)N(C)C)cc1 experimental_result="≤ 2 µM"
molecule=COc1cc(S(=O)(=O)Nc2ccccc2N2CCN(c3ccc(Cl)cc3F)CC2)ccn1 experimental_result="≤ 2 µM"
molecule=Cc1ccc(S(=O)(=O)Nc2cccc(F)c2N2CCC(CN3C[C@@H](C)O[C@@H](C)C3)CC2)cc1 experimental_result="≤ 2 µM"
molecule=C[C@@H]1CN(CC2CCN(c3c(NS(=O)(=O)c4ccc(S(=O)(=O)N(C)C)cc4)cccc3C(F)(F)F)CC2)C[C@H](C)O1 experimental_result="≤ 2 µM"
molecule=CC1(C)Cc2cc(S(=O)(=O)Nc3cccc(F)c3N3CCC(CN4C5CCC4COC5)CC3)ccc2O1 experimental_result="≤ 2 µM"
molecule=CN(C)S(=O)(=O)c1ccc(S(=O)(=O)Nc2ccccc2N2CCN(C3CCCCC3)CC2)cc1 experimental_result="2.01 to 8 µM"
molecule=CN(C)S(=O)(=O)c1ccc(S(=O)(=O)Nc2ccccc2N2CCC3(CCOC3)CC2)cc1 experimental_result="≤ 2 µM"

Data provenance: patent US20230104936A1
